conditions: mouse, in vivo, po
Measured quantity: F: oral bioavailability (%)

Compound | Measured quantity | Value
COc1nc2ccc(Br)cc2cc1C(c1cccc2c1OCO2)C(O)(CCN(C)C)c1cccnc1C (stereo not shown) [Compound 21] | F: oral bioavailability | 19
CCOc1cc(C(O)(CCN(C)C)C(c2cc(OC)nc(OC)c2)c2cc3cc(Br)ccc3nc2OC)cc(OC(C)C)n1 (stereo not shown) [Compound 62] | F: oral bioavailability | 58
COc1nc2ccc(Br)cc2cc1C(c1cccc(C)c1)C(O)(CCN(C)C)c1cccnc1C (stereo not shown) [Compound 19] | F: oral bioavailability | 10
COc1cccc(C(c2cc3cc(Br)ccc3nc2OC)C(O)(CCN(C)C)c2cc(C)cnc2C)c1OC (stereo not shown) [Compound 33] | F: oral bioavailability | 72
COc1nc2ccc(C#N)cc2cc1C(c1cccc(C)c1)C(O)(CCN(C)C)c1cccnc1OC (stereo not shown) [Compound 40] | F: oral bioavailability | 33
COc1cc(C(O)(CCN(C)C)C(c2cc3cc(Br)ccc3nc2OC)c2ccnc(OC)c2OC)c(OC)nc1OC (stereo not shown) [Compound 49] | F: oral bioavailability | 52
COc1cc(C(O)(CCN(C)C)C(c2cc3cc(Br)ccc3nc2OC)c2ccnc(OC)c2OC)cnc1OC (stereo not shown) [Compound 48] | F: oral bioavailability | 48
